# Test system: neprilysin, α-secretase, β-secretase
# experimental details: overall conclusion on modulation of neprilysin, α-secretase and β-secretase (Example 1)
# Assay type: cell-based, human
# reported conditions: conclusion from the results of Example 1
value type: modulator class (neprilysin / α-secretase / β-secretase)

Examples with their reported modulator class (neprilysin / α-secretase / β-secretase) follow.
C/C(=C\Cc1c(C(=O)O[C@@H]2Cc3c(O)cc(O)cc3O[C@@H]2c2cc(O)c(O)c(O)c2)cc(O)c(O)c1O)CCCC(C)CCCC(C)CCCC(C)C (some centres unmarked) ... triple modulator
CC1CCC2C(C1)c1c(c3c(c4c1OC(C)(C)C1CCC(C)CC41)O[C@H](c1cc(O)c(O)c(O)c1)[C@H](OC(=O)c1cc(O)c(O)c(O)c1)C3)OC2(C)C (some centres unmarked) ... double modulator
CC(C)=CCC/C(C)=C/Cc1c(O)cc(O)c2c1O[C@H](c1cc(O)c(O)c(O)c1)[C@H](OC(=O)c1cc(O)c(O)c(O)c1)C2 ... double modulator
O=C(O)CCCCCCCCCCCCCCOC1CCc2c(c3c(c4c2O[C@H](c2cc(O)c(O)c(O)c2)[C@H](OC(=O)c2cc(O)c(O)c(O)c2)C4)OC(OCCCCCCCCCCCCCCC(=O)O)CC3)O1 (some centres unmarked) ... triple modulator

Let us examine a further case.
Provide one value: measured modulator class (neprilysin / α-secretase / β-secretase) of C/C(=C\Cc1c(O)cc2c(c1O)C[C@@H](OC(=O)c1cc(O)c(O)c(O)c1)[C@@H](c1cc(O)c(O)c(O)c1)O2)CCCC(C)CCCC(C)CCCC(C)C (some centres unmarked)
double modulator
